Readings of melting point for the listed compounds

>  <smiles data>
CC(C)c1nn(-c2ccccc2Cl)c2nc(Cc3cccc(O)c3)[nH]c(=O)c12

>  <melting point>
227 to 228 °C

$$$$
>  <smiles data>
COc1ccc(Cc2nc3c(c(SC)nn3-c3c(Cl)cc(Cl)cc3Cl)c(=O)[nH]2)cc1OC

>  <melting point>
226 to 230 °C

$$$$
>  <smiles data>
CCc1nn(-c2c(Cl)cc(Br)cc2Cl)c2nc(Cc3ccc(O)cc3)[nH]c(=O)c12

>  <melting point>
284 to 286 °C

$$$$

--- query ---
Looking up CC(C)c1nn(-c2c(Cl)cc(Cl)cc2Cl)c2nc(Cc3cnccc3Cl)[nH]c(=O)c12 , I found its melting point recorded as 245 to 248 °C
